Tested on: MGC-803
experiment-summary: Cytotoxicity against human MGC803 cells after 48 hrs by MTT assay
Type: functional, cell-based
condition-context: MGC-803, 48 h
Hi! Could you tag entries with IC50 below 7 µM as t, and those at or above as f? Much appreciated.

> print(dat)
                  compound.structure.string  group.label
1  CCCc1nn(C)c(C(N)=O)c1NC(=O)/C=C/c1cc(OC)c(OC)c(OC)c1            t
2  CCCc1nn(C)c(C(N)=O)c1NC(=O)/C=C/c1ccccc1            t
3  CCCc1nn(C)c(C(N)=O)c1NC(=O)c1cc(OC)c(OC)c(OC)c1            t
4  CCCc1nn(C)c2c(=O)[nH]c(/C=C/c3cc(OC)c(OC)c(OC)c3)nc12            f
5  CCCc1nn(C)c(C(N)=O)c1NC(=O)c1cc(OC)c(OC)cc1OC            f
6  CCCc1nn(C)c2c(=O)[nH]c(/C=C/c3ccccc3)nc12            f
7   CCCc1nn(C)c(C(N)=O)c1NC(=O)/C=C/c1ccco1            t

====

Measured pIC50 by item
subject-of-test: UniProt O14746
Sequence (O14746 whole entry): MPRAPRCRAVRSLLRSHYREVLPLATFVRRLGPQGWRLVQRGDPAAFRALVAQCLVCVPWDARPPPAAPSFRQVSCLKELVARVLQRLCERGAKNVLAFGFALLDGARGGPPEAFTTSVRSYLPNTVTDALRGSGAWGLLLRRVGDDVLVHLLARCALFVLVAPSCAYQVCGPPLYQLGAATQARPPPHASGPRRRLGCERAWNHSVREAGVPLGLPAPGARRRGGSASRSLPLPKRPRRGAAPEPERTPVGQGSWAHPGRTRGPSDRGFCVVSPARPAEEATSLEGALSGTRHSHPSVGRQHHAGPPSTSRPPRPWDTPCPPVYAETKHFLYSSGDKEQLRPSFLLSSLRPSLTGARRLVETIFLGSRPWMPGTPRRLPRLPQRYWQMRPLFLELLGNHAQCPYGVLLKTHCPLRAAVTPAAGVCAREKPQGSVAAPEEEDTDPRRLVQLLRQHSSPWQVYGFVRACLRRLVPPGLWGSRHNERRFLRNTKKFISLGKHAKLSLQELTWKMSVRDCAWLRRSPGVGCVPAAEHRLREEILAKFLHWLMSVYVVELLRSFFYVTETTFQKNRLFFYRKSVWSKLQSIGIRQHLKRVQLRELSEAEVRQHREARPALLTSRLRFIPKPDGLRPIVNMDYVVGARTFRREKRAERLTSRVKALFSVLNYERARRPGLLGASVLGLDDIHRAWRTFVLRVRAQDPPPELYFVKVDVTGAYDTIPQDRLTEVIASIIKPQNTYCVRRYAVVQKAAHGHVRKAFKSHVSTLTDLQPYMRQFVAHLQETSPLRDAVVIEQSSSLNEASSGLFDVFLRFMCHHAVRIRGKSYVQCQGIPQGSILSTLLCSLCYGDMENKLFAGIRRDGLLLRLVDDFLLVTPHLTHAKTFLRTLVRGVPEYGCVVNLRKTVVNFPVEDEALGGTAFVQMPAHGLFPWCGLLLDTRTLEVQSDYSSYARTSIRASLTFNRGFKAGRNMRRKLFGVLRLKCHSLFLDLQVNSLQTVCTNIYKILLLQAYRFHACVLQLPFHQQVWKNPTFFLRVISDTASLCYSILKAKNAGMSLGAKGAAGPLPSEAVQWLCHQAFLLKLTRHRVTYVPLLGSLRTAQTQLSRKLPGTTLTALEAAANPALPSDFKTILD
experiment-summary: Inhibition of telomerase in human MGC803 cells after 24 hrs by TRAP-PCR-ELISA
pIC50: −log10 of the molar value.
attribute-measured: pIC50

> print(dat)
                  compound.structure.string  subject.of.test  attribute.measured  measurement
1  CCCc1nn(C)c(C(N)=O)c1NC(=O)c1cc(OC)c(OC)cc1OC   UniProt O14746               pIC50         4.91
2   CCCc1nn(C)c(C(N)=O)c1NC(=O)/C=C/c1ccco1   UniProt O14746               pIC50         5.99
3  CCCc1nn(C)c(C(N)=O)c1NC(=O)c1cc(OC)c(OC)c(OC)c1   UniProt O14746               pIC50         5.10
4  CCCc1nn(C)c(C(N)=O)c1NC(=O)/C=C/c1ccccc1   UniProt O14746               pIC50         5.70
5  CCCc1nn(C)c(C(N)=O)c1NC(=O)/C=C/c1cc(OC)c(OC)c(OC)c1   UniProt O14746               pIC50         5.46
6  CCCc1nn(C)c2c(=O)[nH]c(/C=C/c3ccco3)nc12   UniProt O14746               pIC50         4.82
7  CCCc1nn(C)c2c(=O)[nH]c(/C=C/c3cc(OC)c(OC)c(OC)c3)nc12   UniProt O14746               pIC50         4.72
